Target: HLA-B*57:01
Experiment: IEDB peptide-MHC binding, purified MHC/competitive/fluorescence; filed as Kd, often an IC50 or EC50 that approximates it; bounds were set here for any values at or beyond the usual limits of such assays
Conditions: source organism: Vibrio vulnificus CMCP6
MEASURED_ATTRIBUTE: Kd

Retrieve Kd measured for FGAQMGWPV and print it.
≥ 20 µM

---

Target: HLA-A*02:03
Experiment: IEDB peptide-MHC binding, purified MHC/competitive/radioactivity; filed as Kd, often an IC50 or EC50 that approximates it; bounds were set here for any values at or beyond the usual limits of such assays
Conditions: source organism: Dengue virus 1 Brazil/97-11/1997
Assignment: determine reported Kd for the given sequences.
Give bare numbers, in nM.

Consider the following illustrative entries.
- RESIDUES: "FLSGKGLGKT"
  UNIT_SPEC: "nM"
  Kd: 32
- RESIDUES: "MLMTGTLAV"
  UNIT_SPEC: "nM"
  Kd: 0.47

Please go through the list and note Kd for each sequence.
1. TLYAVATTV
2. LLFMILTVA

1: 12.8; 2: 29.3
